Biological target: 5-hydroxytryptamine receptor 1A (Rattus norvegicus)
Sequence (P19327 whole entry): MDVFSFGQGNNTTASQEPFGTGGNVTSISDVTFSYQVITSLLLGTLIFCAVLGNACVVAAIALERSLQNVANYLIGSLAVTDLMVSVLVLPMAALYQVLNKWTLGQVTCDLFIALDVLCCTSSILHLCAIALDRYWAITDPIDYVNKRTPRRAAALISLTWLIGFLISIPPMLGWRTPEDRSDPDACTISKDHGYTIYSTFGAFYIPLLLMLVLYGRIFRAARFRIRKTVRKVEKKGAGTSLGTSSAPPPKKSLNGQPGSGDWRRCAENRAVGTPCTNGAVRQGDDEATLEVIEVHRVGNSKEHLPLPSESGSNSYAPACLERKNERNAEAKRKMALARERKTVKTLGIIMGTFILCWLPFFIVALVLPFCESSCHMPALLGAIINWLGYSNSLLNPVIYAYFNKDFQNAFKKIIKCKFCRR
Overview of recorded Ki for various compounds

The following compounds have reported results that may help.
O=c1n(CCN2CCN(c3ccc([N+](=O)[O-])cc3)CC2)c(O)c2n1CCC2    > 10 µM
O=c1n(CCCN2CCN(c3ccc(F)cc3)CC2)c(O)c2n1CCC2    > 1 µM
O=c1n(CN2CCN(c3ccc([N+](=O)[O-])cc3)CC2)c(O)c2n1CCCC2    > 1 µM
O=c1n(CCN2CCN(c3ccccc3)CC2)c(O)c2n1CCC2    > 1 µM
O=c1n(CCN2CCN(c3ccc(F)cc3)CC2)c(O)c2n1CCCC2    > 10 µM

(Q) Look up Ki for this compound: O=c1n(CCCN2CCN(c3ccc([N+](=O)[O-])cc3)CC2)c(O)c2n1CCCC2
(A) > 10 µM

(Q) O=c1n(CCN2CCN(c3ccc([N+](=O)[O-])cc3)CC2)c(O)c2n1CCCC2 , same question.
(A) > 10 µM

###

Overview of recorded Ki for various compounds
Target: D(2) dopamine receptor (Rattus norvegicus)
Assay: Binding affinity towards dopamine receptor D2 using [3H]-raclopride radioligand.

The following compounds have reported results that may help.
O=c1n(CCCN2CCN(c3cccc(C(F)(F)F)c3)CC2)c(O)c2n1CCCC2    > 1000 nM
O=c1n(CN2CCN(c3ccc(F)cc3)CC2)c(O)c2n1CCC2    > 10000 nM
O=c1n(CN2CCN(c3cccc(Cl)c3)CC2)c(O)c2n1CCC2    > 10000 nM
O=c1n(CCCCN2CCN(c3ccccc3)CC2)c(O)c2n1CCCC2    > 1000 nM
COc1ccccc1N1CCN(Cn2c(O)c3n(c2=O)CCC3)CC1    > 1000 nM

(Q) Look up Ki for this compound: O=c1n(CCCN2CCN(c3ccc([N+](=O)[O-])cc3)CC2)c(O)c2n1CCCC2
(A) > 10000 nM

(Q) O=c1n(CCN2CCN(c3cccc(C(F)(F)F)c3)CC2)c(O)c2n1CCC2 , same question.
(A) > 1000 nM

(Q) O=c1n(CCCN2CCN(c3ccc([N+](=O)[O-])cc3)CC2)c(O)c2n1CCC2 , same question.
(A) > 10000 nM

(Q) O=c1n(CCCN2CCN(c3ccccc3)CC2)c(O)c2n1CCCC2 , same question.
(A) > 1000 nM

(Q) O=c1n(CN2CCN(c3cccc(C(F)(F)F)c3)CC2)c(O)c2n1CCCC2 , same question.
(A) > 1000 nM

(Q) O=c1n(CCCCN2CCN(c3ccc(F)cc3)CC2)c(O)c2n1CCC2 , same question.
(A) > 1000 nM

(Q) O=c1n(CN2CCN(c3cccc(C(F)(F)F)c3)CC2)c(O)c2n1CCC2 , same question.
(A) > 1000 nM

(Q) O=c1n(CN2CCN(c3ccccc3)CC2)c(O)c2n1CCCC2 , same question.
(A) > 10000 nM

###

Molecular target: D(2) dopamine receptor (Rattus norvegicus, UniProt P61169)
Sequence (P61169 whole entry): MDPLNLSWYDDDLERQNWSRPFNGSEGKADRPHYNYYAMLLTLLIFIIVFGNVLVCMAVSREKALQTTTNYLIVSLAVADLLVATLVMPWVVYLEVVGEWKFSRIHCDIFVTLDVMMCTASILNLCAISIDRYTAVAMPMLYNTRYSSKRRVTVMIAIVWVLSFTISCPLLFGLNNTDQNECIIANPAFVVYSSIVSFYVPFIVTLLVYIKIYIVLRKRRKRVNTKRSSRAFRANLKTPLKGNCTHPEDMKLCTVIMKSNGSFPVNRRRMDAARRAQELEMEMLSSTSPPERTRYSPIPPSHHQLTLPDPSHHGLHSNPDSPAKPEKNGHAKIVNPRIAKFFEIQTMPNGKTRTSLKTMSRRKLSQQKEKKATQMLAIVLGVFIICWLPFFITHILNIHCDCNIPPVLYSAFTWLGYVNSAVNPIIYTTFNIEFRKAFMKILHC
Experiment: Binding affinity towards dopamine receptor D2 using [3H]-raclopride radioligand.
assay endpoint: Ki

O=c1n(CN2CCN(c3ccc(F)cc3)CC2)c(O)c2n1CCCC2    > 10000 nM
O=c1n(CN2CCN(c3ccc([N+](=O)[O-])cc3)CC2)c(O)c2n1CCCC2    > 10000 nM
COc1ccccc1N1CCN(CCCCn2c(O)c3n(c2=O)CCCC3)CC1    > 1000 nM
O=c1n(CCN2CCN(c3ccc(F)cc3)CC2)c(O)c2n1CCC2    > 10000 nM
O=c1n(CCN2CCN(c3ccccc3)CC2)c(O)c2n1CCC2    > 1000 nM

(Q) Can you look up Ki on D(2) dopamine receptor (Rattus norvegicus, UniProt P61169) for O=c1n(CCN2CCN(c3cccc(Cl)c3)CC2)c(O)c2n1CCC2 ?
(A) > 1000 nM

(Q) COc1ccccc1N1CCN(CCCn2c(O)c3n(c2=O)CCC3)CC1 , same question.
(A) > 1000 nM

(Q) O=c1n(CCCN2CCN(c3ccc(F)cc3)CC2)c(O)c2n1CCCC2 , same question.
(A) > 1000 nM

(Q) O=c1n(CCN2CCN(c3cccc(Cl)c3)CC2)c(O)c2n1CCCC2 , same question.
(A) > 1000 nM

(Q) O=c1n(CCCN2CCN(c3cccc(Cl)c3)CC2)c(O)c2n1CCC2 , same question.
(A) > 1000 nM

###

Overview of recorded pKi for various compounds
Target: UniProt:P61169
Experiment: Binding affinity towards dopamine receptor D2 using [3H]-raclopride radioligand.
pKi: −log10 of the molar value.

O=c1n(CCCN2CCN(c3ccc(F)cc3)CC2)c(O)c2n1CCC2    < 6.00

(Q) Look up pKi for this compound: O=c1n(CCCN2CCN(c3ccccc3)CC2)c(O)c2n1CCC2
(A) < 6.00

(Q) O=c1n(CCCN2CCN(c3cccc(Cl)c3)CC2)c(O)c2n1CCCC2 , same question.
(A) < 6.00

(Q) COc1ccccc1N1CCN(Cn2c(O)c3n(c2=O)CCCC3)CC1 , same question.
(A) < 5.00

(Q) O=c1n(CCN2CCN(c3ccccc3)CC2)c(O)c2n1CCCC2 , same question.
(A) < 6.00

(Q) O=c1n(CCCCN2CCN(c3ccc([N+](=O)[O-])cc3)CC2)c(O)c2n1CCC2 , same question.
(A) < 6.00

###

Biological target: UniProt P61169
Assay: Binding affinity towards dopamine receptor D2 using [3H]-raclopride radioligand.
pKi: −log10 of the molar value.
Overview of recorded pKi for various compounds

The following compounds have reported results that may help.
O=c1n(CCCCN2CCN(c3ccc([N+](=O)[O-])cc3)CC2)c(O)c2n1CCCC2    < 6.00
O=c1n(CN2CCN(c3ccccc3)CC2)c(O)c2n1CCC2    < 5.00
O=c1n(CCN2CCN(c3ccc(F)cc3)CC2)c(O)c2n1CCCC2    < 5.00
O=c1n(CN2CCN(c3ccc([N+](=O)[O-])cc3)CC2)c(O)c2n1CCC2    < 5.00

(Q) Can you look up pKi on UniProt P61169 for O=c1n(CCN2CCN(c3cccc(C(F)(F)F)c3)CC2)c(O)c2n1CCCC2 ?
(A) < 6.00

(Q) COc1ccccc1N1CCN(CCCn2c(O)c3n(c2=O)CCCC3)CC1 , same question.
(A) < 6.00

(Q) O=c1n(CCCCN2CCN(c3cccc(C(F)(F)F)c3)CC2)c(O)c2n1CCC2 , same question.
(A) < 6.00

(Q) O=c1n(CCCN2CCN(c3cccc(C(F)(F)F)c3)CC2)c(O)c2n1CCC2 , same question.
(A) < 6.00

###

Molecular target: D(2) dopamine receptor (Rattus norvegicus, UniProt P61169)
Assay: Binding affinity towards dopamine receptor D2 using [3H]-raclopride radioligand.
pKi: −log10 of the molar value.
Overview of recorded pKi for various molecules

The following molecules have reported results that may help.
O=c1n(CCN2CCN(c3ccc([N+](=O)[O-])cc3)CC2)c(O)c2n1CCCC2    < 5.00
O=c1n(CN2CCN(c3cccc(Cl)c3)CC2)c(O)c2n1CCCC2    < 5.00

Continue with the next molecule.
(Q) Look up pKi for this molecule: O=c1n(CCN2CCN(c3ccc([N+](=O)[O-])cc3)CC2)c(O)c2n1CCC2
(A) < 5.00

Data provenance: BindingDB's records for doi:10.1021/jm960416g
